Protocol Details: Pharmacokinetics, iv, rat
Type: in vivo
Run Conditions: plasma, read-out: Tmax
Starred links: 1 amine or outer side, 2 acyl side, 3 side chain; linkers in the order of their positions; H or OH if unused. Positions of bridges follow the written chain, without caps; N, C: chain ends. Non-standard residues stand in square brackets, D forms with d. Residues, ends and D or L forms follow the SMILES beside them. Groups on a side chain read outwards from the residue. *: point of attachment. PEG8 = NCCOCCOCCOCCOCCOCCOCCOCCOCCC(=O)O; Palmitoyl = CCCCCCCCCCCCCCCC(=O)*; hCys = N[C@@H](CCS)C(=O)O; X1 = O=C(CC[*:2])[*:1]
Property: Tmax (h)

[[record]]
compound = "CCCCCCCCCCCCCCCC(=O)NCCOCCOCCOCCOCCOCCOCCOCCOCCC(=O)NCCCC[C@H](NC(=O)CNC(=O)[C@@H]1CCSCCC(=O)N[C@@H](Cc2ccc(O)cc2)C(=O)N[C@@H]([C@@H](C)CC)C(=O)N[C@@H](CCC(N)=O)C(=O)N[C@@H](CC(N)=O)C(=O)N1)C(=O)NCC(N)=O [ASK2131] (YIQN[hCys]GK([PEG8-Palmitoyl])G-NH2; linker N-5 via X1)"
unit_symbol = "h"
observed_result = 4


###

Protocol Details: Pharmacokinetics, iv, rat
Assay type: in vivo
Run Conditions: plasma
Starred links: 1 amine or outer side, 2 acyl side, 3 side chain; linkers in the order of their positions; H or OH if unused. Positions of bridges follow the written chain, without caps; N, C: chain ends. Non-standard residues stand in square brackets, D forms with d. Residues, ends and D or L forms follow the SMILES beside them. Groups on a side chain read outwards from the residue. *: point of attachment. PEG8 = NCCOCCOCCOCCOCCOCCOCCOCCOCCC(=O)O; Palmitoyl = CCCCCCCCCCCCCCCC(=O)*; hCys = N[C@@H](CCS)C(=O)O; X1 = O=C(CC[*:2])[*:1]
Property: half-life (h)

[[record]]
compound = "CCCCCCCCCCCCCCCC(=O)NCCOCCOCCOCCOCCOCCOCCOCCOCCC(=O)NCCCC[C@H](NC(=O)CNC(=O)[C@@H]1CCSCCC(=O)N[C@@H](Cc2ccc(O)cc2)C(=O)N[C@@H]([C@@H](C)CC)C(=O)N[C@@H](CCC(N)=O)C(=O)N[C@@H](CC(N)=O)C(=O)N1)C(=O)NCC(N)=O [ASK2131] (YIQN[hCys]GK([PEG8-Palmitoyl])G-NH2; linker N-5 via X1)"
property = "half-life"
observed_result = 2.3


###

Protocol Details: Pharmacokinetics, iv, rat
Format: in vivo
Run Conditions: total plasma concentration, 4 hours post-dose
Starred links: 1 amine or outer side, 2 acyl side, 3 side chain; linkers in the order of their positions; H or OH if unused. Positions of bridges follow the written chain, without caps; N, C: chain ends. Non-standard residues stand in square brackets, D forms with d. Residues, ends and D or L forms follow the SMILES beside them. Groups on a side chain read outwards from the residue. *: point of attachment. PEG8 = NCCOCCOCCOCCOCCOCCOCCOCCOCCC(=O)O; Palmitoyl = CCCCCCCCCCCCCCCC(=O)*; hCys = N[C@@H](CCS)C(=O)O; X1 = O=C(CC[*:2])[*:1]
Property: Cmax at 4 h

[[record]]
molecule = "CCCCCCCCCCCCCCCC(=O)NCCOCCOCCOCCOCCOCCOCCOCCOCCC(=O)NCCCC[C@H](NC(=O)CNC(=O)[C@@H]1CCSCCC(=O)N[C@@H](Cc2ccc(O)cc2)C(=O)N[C@@H]([C@@H](C)CC)C(=O)N[C@@H](CCC(N)=O)C(=O)N[C@@H](CC(N)=O)C(=O)N1)C(=O)NCC(N)=O [ASK2131] (YIQN[hCys]GK([PEG8-Palmitoyl])G-NH2; linker N-5 via X1)"
property = "Cmax at 4 h"
observed_result = "0.276 µM"


###

Protocol Details: Pharmacokinetics, iv, rat
Type: in vivo
Run Conditions: plasma, read-out: CLplasma
Starred links: 1 amine or outer side, 2 acyl side, 3 side chain; linkers in the order of their positions; H or OH if unused. Positions of bridges follow the written chain, without caps; N, C: chain ends. Non-standard residues stand in square brackets, D forms with d. Residues, ends and D or L forms follow the SMILES beside them. Groups on a side chain read outwards from the residue. *: point of attachment. PEG8 = NCCOCCOCCOCCOCCOCCOCCOCCOCCC(=O)O; Palmitoyl = CCCCCCCCCCCCCCCC(=O)*; hCys = N[C@@H](CCS)C(=O)O; X1 = O=C(CC[*:2])[*:1]
Property: clearance

[[record]]
molecule = "CCCCCCCCCCCCCCCC(=O)NCCOCCOCCOCCOCCOCCOCCOCCOCCC(=O)NCCCC[C@H](NC(=O)CNC(=O)[C@@H]1CCSCCC(=O)N[C@@H](Cc2ccc(O)cc2)C(=O)N[C@@H]([C@@H](C)CC)C(=O)N[C@@H](CCC(N)=O)C(=O)N[C@@H](CC(N)=O)C(=O)N1)C(=O)NCC(N)=O [ASK2131] (YIQN[hCys]GK([PEG8-Palmitoyl])G-NH2; linker N-5 via X1)"
observed_result = "1.2 mL/min/kg"


###

Protocol Details: Pharmacokinetics, iv, rat
Format: in vivo
Run Conditions: plasma, read-out: Vd, steady-state volume of distribution
Starred links: 1 amine or outer side, 2 acyl side, 3 side chain; linkers in the order of their positions; H or OH if unused. Positions of bridges follow the written chain, without caps; N, C: chain ends. Non-standard residues stand in square brackets, D forms with d. Residues, ends and D or L forms follow the SMILES beside them. Groups on a side chain read outwards from the residue. *: point of attachment. PEG8 = NCCOCCOCCOCCOCCOCCOCCOCCOCCC(=O)O; Palmitoyl = CCCCCCCCCCCCCCCC(=O)*; hCys = N[C@@H](CCS)C(=O)O; X1 = O=C(CC[*:2])[*:1]
Property: Vd (L/kg)

[[record]]
molecule = "CCCCCCCCCCCCCCCC(=O)NCCOCCOCCOCCOCCOCCOCCOCCOCCC(=O)NCCCC[C@H](NC(=O)CNC(=O)[C@@H]1CCSCCC(=O)N[C@@H](Cc2ccc(O)cc2)C(=O)N[C@@H]([C@@H](C)CC)C(=O)N[C@@H](CCC(N)=O)C(=O)N[C@@H](CC(N)=O)C(=O)N1)C(=O)NCC(N)=O [ASK2131] (YIQN[hCys]GK([PEG8-Palmitoyl])G-NH2; linker N-5 via X1)"
unit_symbol = "L/kg"
observed_result = 0.8

